- subject-of-test: PBP3 from Acinetobacter baumannii (ATCC 19606) (Acinetobacter baumannii, UniProt A0ABX6CK25)
- Sequence (A0ABX6CK25 64-610): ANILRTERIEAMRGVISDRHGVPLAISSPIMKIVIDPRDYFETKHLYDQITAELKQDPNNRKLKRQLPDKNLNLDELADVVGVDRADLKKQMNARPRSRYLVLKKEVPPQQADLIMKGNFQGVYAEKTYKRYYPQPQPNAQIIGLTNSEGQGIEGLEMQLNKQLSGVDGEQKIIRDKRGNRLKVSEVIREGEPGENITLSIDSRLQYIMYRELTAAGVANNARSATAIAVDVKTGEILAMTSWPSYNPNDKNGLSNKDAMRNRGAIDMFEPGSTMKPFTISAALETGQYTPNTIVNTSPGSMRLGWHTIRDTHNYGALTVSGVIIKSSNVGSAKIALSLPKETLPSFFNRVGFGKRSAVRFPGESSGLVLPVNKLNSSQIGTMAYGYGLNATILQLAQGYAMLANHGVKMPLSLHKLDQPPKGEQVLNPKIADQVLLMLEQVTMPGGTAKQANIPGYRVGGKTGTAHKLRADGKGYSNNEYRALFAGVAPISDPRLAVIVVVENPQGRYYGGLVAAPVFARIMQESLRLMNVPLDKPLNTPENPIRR
pIC50: −log10 of the molar value.
reported-property: pIC50

Per the records, this compound ( O=C(O)c1c(F)ccc2c1OB(O)[C@@H](NC(=O)[C@H](NC(=O)N1CCN(C3CCN(C(=O)c4cccc(O)c4F)CC3)C1=O)c1cc(F)c(O)c(O)c1Cl)C2 (single isomer, unassigned) ) has pIC50 equal to > 5.00

Summary for this compound, O=C(O)c1c(F)ccc2c1OB(O)[C@@H](NC(=O)[C@H](NC(=O)N1CCN(C3CCN(Cc4cccnc4)CC3)C1=O)c1cc(F)c(O)c(O)c1Cl)C2 : pIC50 is > 5.00

Record O=C(O)c1c(F)ccc2c1OB(O)[C@@H](NC(=O)C(NC(=O)N1CCN(C3CCN(C(=O)c4cc[nH]c(=O)c4)CC3)C1=O)c1cc(F)c(O)c(O)c1Cl)C2 (some centres unmarked) . Reported pIC50: > 5.00

pIC50 for O=C(NCCCN1CCN(C(=O)NC(C(=O)N[C@H]2Cc3ccc(F)c(C(=O)O)c3OB2O)c2cc(F)c(O)c(O)c2Cl)C(=O)C1=O)c1ccc(O)c(F)c1F (some centres unmarked) is > 5.00

GET /value?item= O=C(NCCCN1CCN(C(=O)NC(C(=O)N[C@H]2Cc3ccc(F)c(C(=O)O)c3OB2O)c2cc(F)c(O)c(O)c2Cl)C(=O)C1=O)c1ccc(O)c(Cl)c1 (some centres unmarked) &field=pIC50 returns > 5.00

Reference for the values: patent US20240270762A1
